Listed below: pest or weed control at 2 ppm values for each entry.
- System: Erysiphe cichoracearum on cucumbers
- protocol-description: Greenhouse trial, 4 day residual, Erysiphe cichoracearum on cucumbers
- Type: in vivo
- experimental-context: Golovinomyces cichoracearum, 96 h, Table XI; compound alone, dose rate 2 ppm; read-out: Observed Efficacy
Report as a plain number; the unit % is understood.

compound | assay-system | unit-tag | pest or weed control at 2 ppm
CO/N=C(/C(=O)OC)c1ccccc1COc1ccccc1C | Erysiphe cichoracearum on cucumbers | % | 14
CCCCC(C#N)(Cn1cncn1)c1ccc(Cl)cc1 (stereo not drawn) | Erysiphe cichoracearum on cucumbers | % | 52

Here is another compound to look at.
Which pest or weed control at 2 ppm is reported for this compound? Fc1ccc([C@]2(Cn3cncn3)O[C@H]2c2ccccc2Cl)cc1 (racemic)
46

###

- System: Erysiphe cichoracearum on cucumbers
- protocol-description: Greenhouse trial, 4 day residual, Erysiphe cichoracearum on cucumbers
- Type: in vivo
- experimental-context: Golovinomyces cichoracearum, 96 h, Table XIV (Example 14), 4 day residual, dose rate 10 ppm; read-out: Observed Efficacy
result-type: pest or weed control at 10 ppm (%)
Report as a plain number; the unit % is understood.

These solved cases illustrate the format of a correct answer.
compound | result-type | unit-tag | measured-result
CC(C)(C)C(=O)C(Oc1ccc(Cl)cc1)n1cncn1 (stereo not drawn) [triadimefon] | pest or weed control at 10 ppm | % | 23
CC(C1CC1)C(O)(Cn1cncn1)c1ccc(Cl)cc1 (stereo not drawn) [Cyproconazole] | pest or weed control at 10 ppm | % | 68

Here is another compound to look at.
Which pest or weed control at 10 ppm is reported for this compound? CC(C)(C)C(O)C(Oc1ccc(Cl)cc1)n1cncn1 (stereo not drawn) [Triadimenol]
45
